# System: U2OS
# Assay notes: Multiplex assay against U2OS
# Format: toxicity, cell-based
# Particulars: human, 48 h, 10 µM, compound concentration 10 uM, replicate 1
Property name: Population Hoechst High Intensity Objects (%)
Expressed in %, but write only the number.

>>> value_reported("CC(C)Oc1ccccc1C(=O)Nc1ccccc1C(=O)Nc1cccc(S(=O)(=O)C(F)(F)F)c1")
7
>>> value_reported("COc1cc2ncn(-c3cc(OCc4ccccc4C(F)(F)F)c(C(N)=O)s3)c2cc1OC [GW843682X]")
9
>>> value_reported("COC(=O)C1=C(C)NC(C)=C(C(=O)OCCCN2CCC(c3ccccc3)(c3ccccc3)CC2)[C@H]1c1cccc([N+](=O)[O-])c1")
10
>>> value_reported("CNC(=O)Nc1ccc(-c2nc(N3CC4CCC(C3)O4)c3cnn(C4CCC5(CC4)OCCO5)c3n2)cc1")
12
>>> value_reported("Cc1c[nH]c2nccc(Oc3c(F)cc(Nc4cc(Cl)nc(N)n4)cc3F)c12")
5

-- ask Provide measured Population Hoechst High Intensity Objects (%) value, entry: "CCOC(=O)Nc1cc(-c2ccc(C)c(NS(C)(=O)=O)c2)nn2c(C)nnc12"
-- reply 1
